molecular target: FAAH (Mus musculus, UniProt O08914)
Sequence (O08914 whole entry): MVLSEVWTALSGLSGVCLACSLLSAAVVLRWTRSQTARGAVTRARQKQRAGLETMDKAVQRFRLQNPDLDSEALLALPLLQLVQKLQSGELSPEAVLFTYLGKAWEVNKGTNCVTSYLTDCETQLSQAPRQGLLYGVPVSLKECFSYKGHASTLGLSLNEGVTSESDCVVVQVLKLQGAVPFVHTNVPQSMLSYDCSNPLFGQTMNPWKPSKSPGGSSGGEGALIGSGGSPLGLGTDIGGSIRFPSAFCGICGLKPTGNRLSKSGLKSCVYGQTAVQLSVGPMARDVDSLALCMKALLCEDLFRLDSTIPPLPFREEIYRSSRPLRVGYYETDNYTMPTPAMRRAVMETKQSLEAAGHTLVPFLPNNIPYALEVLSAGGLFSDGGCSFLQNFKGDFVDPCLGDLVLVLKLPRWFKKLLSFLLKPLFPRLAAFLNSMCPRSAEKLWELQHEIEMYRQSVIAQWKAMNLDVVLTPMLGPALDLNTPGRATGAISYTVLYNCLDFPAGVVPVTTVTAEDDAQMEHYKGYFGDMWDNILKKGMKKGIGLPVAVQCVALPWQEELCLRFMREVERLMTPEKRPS
READOUT NAME: IC50

INSERT INTO assay_data (smi, readout_name, reading) VALUES
  ('O=C(NCCCCCCNC(=O)ON=C1CCCCC1)ON=C1CCCCC1', 'IC50', '10 to 70 µM');

====

target: PLA2g7 (Mus musculus)
Sequence (Q60963 22-440): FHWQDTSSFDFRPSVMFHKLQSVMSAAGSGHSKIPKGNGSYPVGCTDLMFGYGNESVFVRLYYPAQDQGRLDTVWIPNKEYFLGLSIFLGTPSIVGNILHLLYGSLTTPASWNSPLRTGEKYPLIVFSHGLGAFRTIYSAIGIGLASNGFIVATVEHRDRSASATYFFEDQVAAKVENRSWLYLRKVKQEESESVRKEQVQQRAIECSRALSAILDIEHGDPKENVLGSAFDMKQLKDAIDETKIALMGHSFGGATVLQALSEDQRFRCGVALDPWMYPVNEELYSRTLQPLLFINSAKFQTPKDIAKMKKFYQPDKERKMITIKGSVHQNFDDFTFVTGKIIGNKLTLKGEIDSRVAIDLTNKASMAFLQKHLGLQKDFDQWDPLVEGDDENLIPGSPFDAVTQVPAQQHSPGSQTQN
READOUT NAME: IC50

INSERT INTO results (compound, reading) VALUES
  ('CCCCCCCCCCC[C@@H](C[C@@H]1OC(=O)[C@H]1CCCCCC)OC(=O)[C@H](CC(C)C)NC=O [THL, tetrahydrolipstatin]', '< 0.1 µM'),
  ('O=C(NCCCCCCNC(=O)ON=C1CCCCC1)ON=C1CCCCC1 [RHC80267]', '10 to 70 µM');

====

Parameter IC50, tested on BAT5 (Mus musculus), listed per item.
Sequence (Q9Z1Q2 whole entry): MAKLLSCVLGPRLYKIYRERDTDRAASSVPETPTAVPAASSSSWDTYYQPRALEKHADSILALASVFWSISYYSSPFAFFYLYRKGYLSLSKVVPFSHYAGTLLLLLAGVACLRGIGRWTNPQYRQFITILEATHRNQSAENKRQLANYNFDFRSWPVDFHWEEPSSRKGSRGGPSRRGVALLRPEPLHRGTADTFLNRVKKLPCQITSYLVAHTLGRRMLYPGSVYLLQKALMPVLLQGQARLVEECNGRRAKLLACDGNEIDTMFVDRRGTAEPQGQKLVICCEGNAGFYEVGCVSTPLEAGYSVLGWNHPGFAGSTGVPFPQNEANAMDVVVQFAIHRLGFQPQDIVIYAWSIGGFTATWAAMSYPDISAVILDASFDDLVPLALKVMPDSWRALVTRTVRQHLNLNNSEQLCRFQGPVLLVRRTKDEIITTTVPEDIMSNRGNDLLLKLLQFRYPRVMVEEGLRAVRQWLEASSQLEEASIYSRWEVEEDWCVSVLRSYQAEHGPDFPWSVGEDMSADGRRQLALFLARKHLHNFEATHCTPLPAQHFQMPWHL
READOUT NAME: IC50

INSERT INTO assay_data (molecule, reading) VALUES
  ('O=C(NCCCCCCNC(=O)ON=C1CCCCC1)ON=C1CCCCC1 [RHC80267]', '10 to 70 µM'),
  ('CCCCCCCCCCC[C@@H](C[C@@H]1OC(=O)[C@H]1CCCCCC)OC(=O)[C@H](CC(C)C)NC=O [THL, tetrahydrolipstatin]', '< 0.1 µM');
